What melting point was measured for each of the following?

Please review the entries below; each comes with its answer.
Given the entry CC(C)(C)C1=CC(C(F)(F)F)=CCC1(O)C(C)(C)C (stereo unspecified) , report its measured melting point.
78 to 80 °C

Given the entry CCCCC(CNC(C)=O)(Cn1cncn1)c1ccccc1 (stereo unspecified) , report its measured melting point.
112 to 115 °C

Give melting point for each listed item.
1. NC(=O)c1cc(NCc2ccc(F)cc2)c([N+](=O)[O-])cc1[N+](=O)[O-]
2. COC(=O)C1Oc2ccc(Cl)cc2C(c2ccccc2)(C(C)C)O1 (stereo unspecified)
3. c1ccc2c(c1)c1[nH]cnc1c1nnnn21
4. COP1(=S)OCc2cc(C)cnc2O1 (stereo unspecified)
5. CCCCn1c(=O)c2nn(S(=O)(=O)c3cccc(C(F)(F)F)c3)cc2n(CCCC)c1=O
6. CC(C)(C)NC(=O)c1ccc(Cl)cc1

["178 to 180 °C", "114 to 115 °C", "> 300 °C", "74 to 75 °C", "163 to 165 °C", "136 to 137 °C"]
